- SUBJECT_OF_TEST: Collagenase 3 (Homo sapiens, UniProt P45452)
- METHOD_NOTES: Inhibition of MMP13-mediated bovine nasal cartilage degradation assessed as hydroxyprole release
- Assay type: functional, tissue-based
OBSERVATION_TYPE: IC50
Units required after the number.

## Task Lookup: IC50 / Collagenase 3 (Homo sapiens, UniProt P45452) / O=C1NC(=O)C2(CCCN2c2ccc(Oc3ccc(-c4nc(-c5ccc(F)cc5)co4)cc3)nc2)C(=O)N1
## Result 0.012 µM

====

- METHOD_NOTES: Chemical stability assessed as half life in phosphate buffer saline at pH 7.2
- Format: physicochemical
- PARTICULARS: phosphate buffered saline
OBSERVATION_TYPE: half-life (h)
Lab book: enter the figure in h, no units written.

# CHEMICAL_SMILES, half-life, h
data = [
    ("O=C1NC(=O)C2(CCC(=O)N2c2ccc(Oc3ccc(F)cc3)nc2)C(=O)N1", 91.2),
    ("CC1(C)CC2(C(=O)NC(=O)NC2=O)N(c2ccc(Oc3ccc(F)cc3)nc2)C1=O", 67.2),
]

The record that follows has no half-life shown yet.
## Task Which value of half-life has been reported for O=C1NC(=O)C2(CCS(=O)(=O)N2c2ccc(Oc3ccc(F)cc3)nc2)C(=O)N1 in the records?
## Result 26.4

Where do these numbers come from? They come from ChEMBL document CHEMBL1140560.
